Data origin: patent US20140079691A1

What pKd was measured for each of the following?
# target-of-assay: T1, MS2 bacteriophage coat protein (MS2 bacteriophage, UniProt P03612 2-130)
# T1 sequence: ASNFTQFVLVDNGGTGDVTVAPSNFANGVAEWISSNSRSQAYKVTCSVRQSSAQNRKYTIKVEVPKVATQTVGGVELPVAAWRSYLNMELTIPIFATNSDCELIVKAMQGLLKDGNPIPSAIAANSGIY
# protocol-description: SPR (Biacore T200), IgG captured on anti-human IgG Fc, MS2 antigen flowed over
Reminder that pKd means the negative base-10 logarithm of the concentration expressed in mol/L.

(Q) I have this binder here, APE1052 (antibody, V domains shown) VH: EVQLLESGGGLVQPGGSLRLSCAASGFTFSSYAMSWVRQAPGKGLEWVSTISTGGGYTYFPDSVKGRFTISRDNSKNTLYLQMNSLRAEDTAVYYCARQGDFGDWYFDVWGAGTTVTVSS VL: DVVMTQSPLSLPVTLGQPASISCRSSESLVHTNGNTYLHWYQQRPGQSPRLLIYKVSNRFSGVPDRFSGSGSGTDFTLKISRVEAEDVGVYFCSQSTRVPWTFGGGTKLEIK , and I need its recorded pKd.
(A) 8.38

(Q) Reported pKd, binder APE556 (antibody, V domains shown) VH: EVQLLESGGGLVQPGGSLRLSCAASGFTFSSYAMSWVRQAPGKGLEWVSTISTGGGYTYFPDSVKGRFTISRDNSKNTLYLQMNSLRAEDTAVYYCARQGDFGDWYFDVWGAGTTVTVSS VL: DVVMTQSPLSLPVTLGQPASISCRSSQSLVHSNGNTYLHWYQQRPGQSPRLLIYKVSNRFSGVPDRFSGSGSGTDFTLKISRVEAEDVGVYFCSQSTHVPWTFGGGTKLEIK : ____
(A) 7.57

(Q) What measured pKd goes with APE1051 (antibody, V domains shown) VH: EVQLLESGGGLVQPGGSLRLSCVASGFTFSSYAMSWVRQAPGKGLEWVSTISTGGGYTYFPDSVKGRFTISRDNSKNTLYLQMNSLRAEDTAVYYCARQGDFGDWYFDVWGAGTTVTVSS VL: DVVMTQSPLSLPVTLGQPASISCRSSQSLVHSNGNTYLHWYQQRPGQSPRLLIYKVSNRFSGVPDRFSGSGSGTDFTLKISRVEAEDVGVYFCSQSTHVPWTFGGGTKLEIK ?
(A) 7.82
